B1: EHEE_rd4_0726 (parent)
chain: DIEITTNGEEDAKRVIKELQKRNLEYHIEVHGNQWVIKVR

Variants of: B1
PROTOCOL_NOTES: folding stability dG (cDNA display proteolysis); higher = more stable
TEST_CONDITIONS: PBS, room temperature
The following variants are shown together with reported folding stability dG values.

| VARIANT_LABEL | folding stability dG [kcal/mol] |
| --- | --- |
| D11K | 1.78 |
| N7P | 1.36 |
| Q34M | 2.6 |
| G8R | 2.33 |
| Q20K | 2.49 |
| H31K | 2.5 |
| R14M | 2.27 |
| K21E | 2.44 |
| R40I | 2.84 |
| I28M | 1.61 |
| I2L | 2.52 |
| V30L | 1.86 |
| H31F | 2.36 |
| G32P | 1 |
| R22T | 1.51 |
| E29Q | 2 |
| Q34G | 1.42 |
| D11G | 1.92 |
| G8H | 2.1 |
| K21H | 2.02 |
| K13E | 1.97 |
| K17I | 2.46 |
